meta.source: ChEMBL document CHEMBL3137667

Hepatotoxicity (malignant tumour) values by entry
# study.conditions: human;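 note: malignant tumour confirmed by histopathology, value gives the count of indexed literature references reporting it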
Give your answer as a number; write no unit.

test_smiles=CCN1CCN(C(=O)N[C@@H](C(=O)N[C@]2(OC)C(=O)N3C(C(=O)O)=C(CSc4nnnn4C)CS[C@@H]32)[C@H](C)O)C(=O)C1=O obs_value=0

Note to self: Hepatotoxicity (malignant tumour) recorded for CO[C@@H]1[C@@H](O[C@@H]2O[C@H](C)[C@@H](O[C@H]3C[C@@](C)(O)[C@@H](OC(=O)CC(C)C)[C@H](C)O3)[C@H](N(C)C)[C@H]2O)[C@@H](CC=O)C[C@@H](C)[C@@H](O)/C=C/C=C/C[C@@H](C)OC(=O)C[C@H]1OC(C)=O was 0
